- TARGET_UNDER_TEST: rh beta tryptase (Homo sapiens, UniProt P20231)
- Construct: purchased Promega
- Sequence (P20231 31-275): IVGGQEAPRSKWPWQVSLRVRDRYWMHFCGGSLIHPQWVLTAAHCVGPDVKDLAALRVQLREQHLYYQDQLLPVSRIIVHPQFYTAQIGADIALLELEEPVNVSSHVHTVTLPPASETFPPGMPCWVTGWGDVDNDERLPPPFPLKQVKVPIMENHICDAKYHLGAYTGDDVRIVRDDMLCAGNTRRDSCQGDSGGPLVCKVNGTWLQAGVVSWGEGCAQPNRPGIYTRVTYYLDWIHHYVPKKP
- TEST_PROTOCOL: Tryptase inhibition test (cleavage of N-p-tosyl-Gly-Pro-Lys-para-nitroaniline, p-nitroaniline measured at 405 nm)
- Format: biochemical
- ASSAY_CONDITIONS: inhibition of rh beta tryptase at 10 μM test substance; substrate N-p-tosyl-Gly-Pro-Lys-para-nitroaniline 0.6 mM, pH 7.4, 37° C., 5 minutes
MEASURED_METRIC: inhibition at 10 µM (%)

| MOLECULE | inhibition at 10 µM / % |
| --- | --- |
| COc1cccc(CN(Cc2ccc(CN)cc2)C(=O)c2ccc3c(c2)nc(CCc2ccc(C(=N)N)cc2)n3CC2CC2)c1 [Example 74] | 66 |

I = COC(=O)c1ccc(CN(Cc2ccc(CN)cc2)C(=O)c2ccc3c(c2)nc(CCc2ccc(C(=N)N)cc2)n3Cc2ccc(C)cc2)cc1 [Example 445]
II = CCCCN(CCN)C(=O)c1ccc2c(c1)nc(CCc1ccc(C(=N)N)cc1)n2CCCOCC [Example 278]
## Task Quick check, higher inhibition at 10 µM between I and II ? Answer by stating the label of the chosen item.
## Result II
(II: 83%, I: 52%)

----------
- TARGET_UNDER_TEST: rh beta tryptase (Homo sapiens, UniProt P20231)
- Construct: purchased Promega
- TEST_PROTOCOL: Tryptase inhibition test (cleavage of N-p-tosyl-Gly-Pro-Lys-para-nitroaniline, p-nitroaniline measured at 405 nm)
- Type: biochemical
- ASSAY_CONDITIONS: inhibition of rh beta tryptase at 10 μM test substance; substrate N-p-tosyl-Gly-Pro-Lys-para-nitroaniline 0.6 mM, pH 7.4, 37° C., 5 minutes
MEASURED_METRIC: % Inhibition (10 μM) (%)

| COMPOUND | % Inhibition (10 μM) / % |
| --- | --- |
| N=C(N)c1ccc(CCc2nc3cc(C(=O)N(CCN)Cc4ccccc4)ccc3n2CCCNC(=O)Cc2ccccc2)cc1 | 51 |
| N=C(N)c1ccc(CCc2nc3cc(C(=O)N(CCN)Cc4cccc(C(F)(F)F)c4)ccc3n2CC2CC2)cc1 | 52 |
| N=C(N)c1ccc(CCc2nc3cc(C(=O)N(CCN)Cc4ccc(Cl)cc4)ccc3n2Cc2cccs2)cc1 | 55 |
| N=C(N)c1ccc(CCc2nc3cc(C(=O)N(CCN)Cc4ccc(Cl)cc4)ccc3n2CC2CCCO2)cc1 (centres unmarked) | 55 |
| CCCCN(Cc1ccc(CN)cc1)C(=O)c1ccc2c(c1)nc(CCc1ccc(C(=N)N)cc1)n2CCCNC(=O)Cc1ccccc1 | 70 |
| CCOCCCn1c(CCc2ccc(C(=N)N)cc2)nc2cc(C(=O)N(CCN)Cc3ccc(Cl)cc3)ccc21 | 62 |
| CCOCCCn1c(CCc2ccc(C(=N)N)cc2)nc2cc(C(=O)N(CCN)c3ccccn3)ccc21 | 70 |
| CCOCCCn1c(CCc2ccc(C(=N)N)cc2)nc2cc(C(=O)N(Cc3ccc(Cl)cc3)Cc3ccc(CN)cc3)ccc21 | 67 |
| Cc1ccccc1N1CCN(CCCn2c(CCc3ccc(C(=N)N)cc3)nc3cc(C(=O)N(CCN)Cc4ccc(Cl)cc4)ccc32)CC1 | 59 |
| CCCCN(CCCC)CCCn1c(CCc2ccc(C(=N)N)cc2)nc2cc(C(=O)N(CCN)Cc3ccc(Cl)cc3)ccc21 | 58 |
| N=C(N)c1ccc(CCc2nc3cc(C(=O)N(Cc4ccc(Cl)cc4)Cc4ccc(CN)cc4)ccc3n2CCCN2CCOCC2)cc1 | 59 |
| CCCCN(CCCC)CCCn1c(CCc2ccc(C(=N)N)cc2)nc2cc(C(=O)N(Cc3ccc(Cl)cc3)Cc3ccc(CN)cc3)ccc21 | 56 |
| N=C(N)c1ccc(CCc2nc3cc(C(=O)N(CCN)Cc4ccc(Cl)cc4)ccc3n2CC2CC2)cc1 | 52 |
| N=C(N)c1ccc(CCc2nc3cc(C(=O)N(Cc4ccc(Cl)cc4)Cc4ccc(CN)cc4)ccc3n2CC2CC2)cc1 | 60 |
